System: SW-620 colon
ASSAY_INFO: NCI tumour cell line growth inhibition, 48 h
Record form. Attribute: TGI. Fill in for each entry.
# number only, unit µM dropped from output

### Prompt Supply reported TGI belonging to this compound: C=C1C(=O)OC2C1C(OC(=O)/C(C)=C/C)CC(O)(CCl)C1C(OC(C)=O)C=C(C)C21O (stereo not given)
### Response 14

### Prompt Read off the recorded TGI for `N#Cc1c(Cl)cccc1Oc1ccc(S(=O)(=O)/N=C(\NO)Nc2ccc(Cl)cc2)cc1`
### Response 34.8

### Prompt Tell us which TGI value is on record for COc1cc(/C=C2\CC(C)CC3C2=NN(c2ccccc2)C3c2cc(OC)c(OC)c(OC)c2)cc(OC)c1OC (stereo not given)
### Response 22.5

### Prompt Using the record for `COc1ccc(/C=C/C(=O)c2cccc(C(=O)/C=C/c3ccc(OC)c(OC)c3)n2)cc1OC` , state its measured TGI.
### Response 15.9

### Prompt Please report the measured TGI for `c1ccc(Oc2c3ccccc3nc3ccccc23)cc1`
### Response 17.5

### Prompt Fill in reported TGI for this entry: `O=C1C(c2ccc(Cl)cc2)=[N+]([O-])c2ccccc21`
### Response 62.1

### Prompt Supply measured TGI of `O=c1oc2ccccc2c(Cl)c1Cl` in your reply.
### Response 5.6

### Prompt Tell me measured TGI for CCOC(=O)c1[nH]c2cccc3c2c1CC(Br)C3=O (stereo not given) please.
### Response 5.41

### Prompt State its TGI: `O=[N+]([O-])/C(C(Cl)=C(Cl)Cl)=C(\Nc1cccc2cccnc12)Sc1ccccc1`
### Response 31.9

###

Tested on: SNB-19 CNS
ASSAY_INFO: NCI tumour cell line growth inhibition, 48 h
QUANTITY: TGI

### Prompt Report TGI on SNB-19 CNS for this entry: `O=C(c1c(F)c(F)c(F)c(F)c1F)n1c(=O)[nH]c2ccccc21`
### Response 28.2 µM

### Prompt Please indicate recorded TGI of O=C1CSC2(CC(/C=C/c3cccc(Br)c3)=NN2c2cccc(S(=O)(=O)O)c2)N1c1nc2ccccc2s1 (stereo unspecified) measured with SNB-19 CNS.
### Response > 100 µM

### Prompt Fill in: TGI on SNB-19 CNS, entry `O=S(=O)(O)c1cccc2ccc(O)c(N=Nc3ccc(S(=O)(=O)c4ccc(N=Nc5c(O)ccc6cccc(S(=O)(=O)O)c56)cc4)cc3)c12`
### Response > 100 µM

### Prompt Tell me TGI of `Cc1cc(Cl)ccc1NC(=O)/C(Cc1nc2ccc(C(=O)c3ccccc3)cc2[nH]c1=O)=N/NC(=O)c1ccncc1` when tested on SNB-19 CNS.
### Response > 100 µM

### Prompt Quote TGI with test system SNB-19 CNS for `O=c1oc2ccccc2cc1-c1ccc([N+](=O)[O-])cc1`
### Response > 75.6 µM

### Prompt Write TGI of `CCOC(=O)Oc1c(OC)cc(C(=O)c2ccc(OC)c(OC(=O)CCl)c2OC)cc1OC` ; system used: SNB-19 CNS
### Response > 100 µM

### Prompt // output TGI; input `Cc1ccc(C)c(-n2c(-c3ccc(Br)cc3)csc2=NC(=O)c2ccccc2F)c1` ; system SNB-19 CNS
### Response > 100 µM

### Prompt State recorded TGI with SNB-19 CNS, entry `CC(C)(C)c1ccc(Oc2ccc(C#N)c(C#N)c2)c(C(C)(C)C)c1` , no comment.
### Response > 100 µM

### Prompt Specify the recorded TGI for COc1ccc(-c2c(C#N)c(N)n(C3OCC(O)C(O)C3O)c(=S)c2C#N)cc1 (stereo unspecified) , system: SNB-19 CNS.
### Response > 100 µM

### Prompt Given CC(C)C(=O)CC(Sc1ccc(N)cc1)c1ccccc1 (stereo unspecified) , report its TGI on SNB-19 CNS.
### Response > 100 µM

### Prompt Print SNB-19 CNS TGI for `C=C(CN1CCc2ccccc2C1)c1ccc(/C=C/C(=O)Nc2ccccc2N)cc1` .
### Response > 100 µM

### Prompt Answer with TGI of `O=C(c1ccccc1)c1ccc2cccc(O)c2n1` measured for SNB-19 CNS.
### Response > 100 µM

### Prompt Enter measured TGI, system SNB-19 CNS, for the compound shown: COc1cccc2c1C(=O)c1c(O)c3c(c(O)c1C2=O)CC(O)(C(C)=O)CC3OC1CC([N+](C)(C)C)C(O)C(C)O1 (stereo unspecified)
### Response > 100 µM

### Prompt Retrieve TGI on SNB-19 CNS; query `O=C(/C=C/c1ccsc1)c1cccs1`
### Response > 100 µM

### Prompt # return TGI for `OCc1ccc(N(Cc2ccc(F)cc2)C2CCC2)cc1Cl` , test system: SNB-19 CNS
### Response 27.5 µM

### Prompt Jot down TGI (SNB-19 CNS) of `CC1=CC(=C(c2ccc(N)c(C)c2)c2ccc(N)c(C)c2)C=CC1=N` .
### Response 15.8 µM

### Prompt Print SNB-19 CNS TGI for `COC(=O)c1ccc(-c2nc3cc(F)c(F)cc3nc2C#N)cc1` .
### Response 17 µM

### Prompt Provide TGI, recorded with SNB-19 CNS, of `O=C1c2cccnc2-c2nc(-c3ccccn3)cc3c2c1nc1ccccc13`
### Response 2.65 µM

### Prompt Specify the recorded TGI for COC(=O)C1=C(C(=O)OC)C2(c3ccccc3)c3ccccc3C(=O)C1N2C1CCCCC1 (stereo unspecified) , system: SNB-19 CNS.
### Response > 100 µM

### Prompt Look up and report TGI, with SNB-19 CNS as system, for COc1ccc2c(c1OC)C(Br)CCC(Br)(Br)C2=O (stereo unspecified)
### Response 28.9 µM

### Prompt Write down measured TGI (SNB-19 CNS) for this compound. `CCCCCCCCCCCCOCCCCCCCCC/C=C/c1ccc2c(c1)OCCOCCOCCOCCO2`
### Response 77.6 µM

### Prompt Identify measured TGI obtained with SNB-19 CNS for COC1C(=[N+]=[N-])C(=O)NC(=O)N1C1OC(COC(c2ccccc2)(c2ccccc2)c2ccccc2)C(O)C1O (stereo unspecified) .
### Response 34 µM

### Prompt Provide TGI, tested on SNB-19 CNS, for `N#CCN(Cc1ccccc1)[C@H]1CCC[C@]1(O)/C=C/c1ccc2c(c1)OCO2` .
### Response 76.3 µM

### Prompt Identify measured TGI obtained with SNB-19 CNS for `O=c1[nH]nc(Cc2ccccc2)n1N=C1CCCCC1` .
### Response > 100 µM

### Prompt # return TGI of CC(C)(C)[Si](C)(C)OC1[C@@H](O[Si](C)(C)C(C)(C)C)[C@@H](CNC(=O)NC(=O)NC(=O)CI)O[C@H]1n1cnc2c(NC(=O)Nc3ccccc3)ncnc21 (stereo partly specified) (system: SNB-19 CNS)
### Response 38.2 µM

### Prompt State the measured TGI (SNB-19 CNS) of `CCCCn1c(C)c(C)c2c1NN=C(C#N)S2(=O)=O`
### Response > 100 µM

### Prompt Report measured TGI on SNB-19 CNS; entry: CCOC(=O)C(C)c1nc2cc(F)c(N3CCOCC3)cc2[nH]c1=O (stereo unspecified)
### Response > 100 µM

### Prompt Please report the measured TGI for `O=C(O)C(Cc1ccccc1-c1ccccc1)C(=O)O` tested on SNB-19 CNS.
### Response > 100 µM

### Prompt Using SNB-19 CNS as the test system, report measured TGI of `CN(C)c1ccc(/C=C(\NC(=O)c2ccccc2)c2nc3ccccc3c(=O)o2)cc1` .
### Response > 100 µM

### Prompt Look up and report measured TGI (SNB-19 CNS) for the following compound: `CCOC(=O)CCN1C(=O)c2ccc(NC(=O)C(=O)O)cc2S1(=O)=O`
### Response > 100 µM

### Prompt Please report TGI with SNB-19 CNS for item `NS(=O)(=O)c1ccc(NC(=S)/N=C/c2c(O)c3ccccc3[nH]c2=O)cc1` .
### Response > 100 µM

### Prompt Please report TGI with SNB-19 CNS for item CC(SC(=S)N1CCCC1)C(=O)Nc1nnc(-c2ccc(Cl)cc2)o1 (stereo unspecified) .
### Response > 100 µM

### Prompt Would you please give the reported TGI of `Cc1cccc(/C=N/NC(=S)NC2CCCCC2)n1` with SNB-19 CNS?
### Response > 100 µM

### Prompt Write down the reported TGI (system: SNB-19 CNS) of `COC(=O)CC(SCCO)SCCO`
### Response > 100 µM

### Prompt Give TGI for this entry on SNB-19 CNS: `CC(=O)CC(=O)CCCC(=O)Nc1ccc(Cl)cc1Cl`
### Response > 100 µM

### Prompt Would you please give the reported TGI of OC12c3ccccc3C1CCCCCCCCCC21OCCCO1 (stereo unspecified) with SNB-19 CNS?
### Response > 100 µM

### Prompt # lookup: SNB-19 CNS TGI, key = `CN(C)CCCNC(=O)c1cc(NC(=O)c2cc(NC(=O)CCCN3c4ccccc4C=Cc4ccccc43)cn2C)cn1C`
### Response > 100 µM

### Prompt Give TGI for `COc1ccccc1-c1n[nH]c(-c2ccccc2O)n1` tested on SNB-19 CNS.
### Response > 100 µM

### Prompt Please report TGI with SNB-19 CNS for item `O=C1c2scc(-c3ccc(F)cc3)c2-n2cccc21` .
### Response > 100 µM

### Prompt Provide TGI, tested on SNB-19 CNS, for `COc1ccc(/C=C/C(=O)/C=C(/C=C/c2ccc(OC)c(OC)c2)OB(F)F)cc1OC` .
### Response 5.73 µM

### Prompt Fill: TGI (SNB-19 CNS) for this compound COC(=O)C1Cc2c(n(C)c3ccccc23)C(c2ccccc2)N1 (stereo unspecified)
### Response > 100 µM
